- assay-comment: Clearance in rat at 1.2 mg/kg, iv and 2.2 mg/kg, po
- Assay type: ADME, organism-based
- test-conditions: in vivo
experimental-readout: clearance (mL/min/kg)
Quick note: give the figure in mL/min/kg, leave out the unit.

Enquiry: Using known records, supply clearance for CN(CC(=O)N1CCC[C@H](c2ccccc2)[C@@H]1CN1CCCC1)c1ccc(Cl)c(Cl)c1 (stereo in doubt; 10b)
Return: 97

###

- experimental-target: Urotensin-2 receptor (Homo sapiens)
- Sequence (Q9UKP6 whole entry): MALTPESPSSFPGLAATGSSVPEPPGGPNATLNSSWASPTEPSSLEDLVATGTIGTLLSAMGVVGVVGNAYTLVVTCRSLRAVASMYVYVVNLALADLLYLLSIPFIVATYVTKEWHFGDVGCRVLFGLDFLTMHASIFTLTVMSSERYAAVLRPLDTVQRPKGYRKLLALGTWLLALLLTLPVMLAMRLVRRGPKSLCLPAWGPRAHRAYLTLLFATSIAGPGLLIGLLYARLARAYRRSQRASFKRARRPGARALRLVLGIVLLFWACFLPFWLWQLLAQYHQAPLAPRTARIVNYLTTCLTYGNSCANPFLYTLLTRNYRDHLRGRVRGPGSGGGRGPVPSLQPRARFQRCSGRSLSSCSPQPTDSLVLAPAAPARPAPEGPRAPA
- assay-comment: Displacement of [125I]human urotensin 2 from human recombinant urotensin 2 receptor expressed in HEK293 cells
Consider the cut-off 400 nM. If the recorded Ki is strictly smaller, the label is yes; if not, the label is no.

- compound: "Cc1ccc(N(C)CC(=O)N2CCC[C@H](c3ccccc3)[C@@H]2CN2CCCC2)cc1C"
  discrete-label: "yes"
- compound: "O=C(Cc1csc2ccc(Cl)cc12)N1CCC[C@H](c2ccccc2)[C@@H]1CN1CCCC1 (relative stereo)"
  discrete-label: "yes"
- compound: "O=C(Cc1ccc(Cl)c(Cl)c1)N1CCC[C@H](c2ccccc2)[C@@H]1CN1CCCC1"
  discrete-label: "no"
- compound: "CN1CCN(CC2CCCCN2C(=O)Cc2csc3ccc(Cl)cc23)CC1 (centres undefined)"
  discrete-label: "no"
- compound: "O=C(Cc1ccsc1)N1CCC[C@H](c2ccccc2)[C@@H]1CN1CCCC1"
  discrete-label: "no"

Enquiry: Ki strictly < 400 nM for this compound? CN(CC(=O)N1CCC[C@H](c2ccccc2)[C@@H]1CN1CCCC1)c1cccc(Cl)c1
Return: yes

Enquiry: Ki strictly < 400 nM for this compound? COc1cccc(N(C)CC(=O)N2CCC[C@H](c3ccccc3)[C@@H]2CN2CCCC2)c1
Return: no

Enquiry: Ki strictly < 400 nM for this compound? O=C(CNc1ccc(Cl)c(Cl)c1)N1CCC[C@H](c2ccccc2)[C@@H]1CN1CCCC1
Return: yes
